# assay text: binders from COS7 lysate, DM2A8 probe, primary screen, torsin A project, cell lysate, small-molecule microarray, fluorescence 635/667 (AID 1065)
# experimental setup: higher = more signal, COS7 lysate expressing mutant human TOR1A
measured attribute: composite z-score

compound: CC(C)C[C@@H]1NC(=O)[C@@]23C(=O)N[C@@H](Cc4ccccc4)C2[C@H](C)[C@@]2(C)O[C@H]2C3/C=C/C/C=C\CNC(=O)[C@@H](C)NC1=O (some centres undefined)
composite z-score: 0.183

compound: C=CCNC(=O)[C@H]1[C@@H]2C(=O)O[C@@H](c3ccccc3)[C@@H](c3ccccc3)N2[C@@H](c2ccc(OCCO)cc2)[C@]12C(=O)N(C(=O)OCCOC)c1ccc(C#Cc3ccc(OC)cc3)cc12
composite z-score: 0.91

compound: COc1ccc(C(=O)Nc2cccc(CN3C(=O)[C@@]4(O[C@@H](CC(=O)N(CCO)Cc5ccccc5)[C@H]([Si](C)(C)c5ccc(OC)cc5)[C@H]4C)c4ccccc43)c2)cc1
composite z-score: 0.741

Exercise: Please give the documented composite z-score of "C[C@]1(C(=O)NCCN2CCOCC2)c2ccccc2C(=O)N(Cc2cc(F)cc(C(F)(F)F)c2)[C@H]1c1ccc(CO)cc1"
Solution: 0.933

Exercise: Please give the documented composite z-score of "COCCOC(=O)N1C(=O)[C@@]2(c3cc(C#Cc4ccc(OC)cc4)ccc31)[C@H](c1ccc(OCCO)cc1)N1[C@H](c3ccccc3)[C@H](c3ccccc3)OC(=O)[C@H]1[C@@H]2C(=O)Nc1nc2ccccc2s1"
Solution: 0.247

Exercise: Please give the documented composite z-score of CN1C(=O)C2C=CC(C(O)c3ccc(F)cc3)N(NC(=O)OC(C)(C)C)C2C1=O (centres undefined)
Solution: -0.598

Exercise: Please give the documented composite z-score of CC(C)CCC[C@@H](C)[C@H]1CC[C@@]2(C)C3=C(CC[C@]12C)[C@@]1(C)CC[C@H](OC(=O)c2ccccc2)C(C)(C)C1CC3 (some centres undefined)
Solution: 0.299

Exercise: Please give the documented composite z-score of COC(=O)C1N=C(c2ccc(OCCCO)cc2)N(c2ccccc2)O1 (centres undefined)
Solution: 0.148

Exercise: Please give the documented composite z-score of "O=C(NCCN1CCOCC1)[C@@H]1c2ccccc2C(=O)N(Cc2ccccc2)[C@H]1c1ccc(CO)cc1"
Solution: -0.334

----------
Below, each of the compounds is paired with its reported composite z-score value.
# System: Human papillomavirus type 1a protein E7 (residues 44-93)
# assay text: HPV1a E7 fragment binders on microarrays, primary screen, biochemical, small-molecule microarray, residues 44-93, 635 nm fluorescence (AID 1108);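 note: E7 fragment applied at 1 µg/mL in TBST for 1 h at 4 C; score combines spot fluorescence with its signal to noise ratio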
# experimental setup: small-molecule microarray binding, fluorescence 635 nm; higher = more signal
Output spec: single numeric token, no unit.

compound: COc1cc(NN2C(C(O)c3ccc(I)cc3)C=CC3C(=O)N(c4ccccc4)C(=O)C32)cc(OC)c1OC (stereo not given)
composite z-score: 1.46

compound: C=CCNC(=O)[C@@H]1[C@H]2C(=O)O[C@H](c3ccccc3)[C@H](c3ccccc3)N2[C@H](c2ccc(OCCO)cc2)[C@@]12C(=O)N(C(=O)OCCOC)c1ccc(C#CCCO)cc12
composite z-score: 1.33

Exercise: Please give the documented composite z-score of "COCCOC(=O)N1C(=O)[C@@]2(c3cc(C#CCC(C(=O)OC)C(=O)OC)ccc31)[C@H](C(=O)NC[C@H](O)c1ccccc1)[C@H]1C(=O)O[C@H](c3ccccc3)[C@H](c3ccccc3)N1[C@@H]2c1ccc(OCCO)cc1"
Solution: 1.36

Exercise: Please give the documented composite z-score of "COCC(=C=CC[C@@H](O)c1cccc(OCCO)c1)CCO"
Solution: 0.328

Exercise: Please give the documented composite z-score of "COC(=O)[C@@]1(Cc2ccc(F)cc2)[C@H]2c3cc(C(=O)N4CCCC4)n(CC4CC4)c3C[C@H]2CN1C(=O)c1ccccc1"
Solution: 1.39

Exercise: Please give the documented composite z-score of "C=C[C@@H](OC)[C@H](OC(=O)Nc1ccc(OC)cc1)c1ccc(OC)c(O)c1"
Solution: -0.546

Exercise: Please give the documented composite z-score of CC(C)C(CO)N1C(=O)[C@@H]2[C@H]3C(=O)OCC=C[C@H]3OC23C=CCN(C(C)(C)C)C(=O)[C@@H]13 (stereo not given in full)
Solution: -1.27

----------
# assay text: HepG2 cell viability effects, profiling panel, calcein-AM fluorescence, 48 h, basal (AID 1164); note: test concentration not given here
# experimental setup: higher = more signal
measured attribute: z-score
Output spec: single numeric token, no unit.

Example molecules with recorded z-score:
molecule: COc1ccc([Si](C)(C)[C@@H]2[C@@H](CC(=O)N3Cc4ccccc4C[C@H]3CO)O[C@]3(C(=O)N(Cc4ccc(N5CCC5=O)cc4)c4ccccc43)[C@H]2C)cc1
recorded result: 0.437
//
molecule: COC(=O)C1=CC(CCCO)=CC(c2ccc(CN3CCCC3)cc2)N(Cc2cc3c(cc2Br)OCO3)C=C1C(=O)OC (centres undefined)
recorded result: 0.0308
//
molecule: CC(C)CNC(=O)[C@@H]1c2ccccc2C(=O)N(C2CCCCC2)[C@H]1c1ccc(CO)cc1
recorded result: 1.41
//
molecule: C=CCNC(=O)[C@H]1[C@@H]2C(=O)O[C@@H](c3ccccc3)[C@@H](c3ccccc3)N2[C@@H](c2ccc(O)cc2)[C@]12C(=O)N(C(=O)OCCOC)c1ccc(C#CCC(C(=O)OC)C(=O)OC)cc12
recorded result: -0.615
//
molecule: O=C1C2C=CC(C(O)c3ccco3)N(Nc3ccccc3)C2C(=O)N1c1ccccc1 (centres undefined)
recorded result: 0.473
//
molecule: Cc1ccc(S[C@]2(C(=O)NCc3ccccc3)CC(=O)N(Cc3cc(C(F)(F)F)cc(C(F)(F)F)c3)[C@@H]2c2ccc(CO)cc2I)cc1
recorded result: -0.165
//
molecule: [N-]=[N+]=NCc1ccccc1C[C@@]1(C(=O)N2CCCCC2)N=C(c2ccc(OCCCO)cc2)O[C@@H]1c1ccccc1CN=[N+]=[N-]
recorded result: 0.036
//
molecule: COCCOC(=O)N1C(=O)[C@@]2(c3cc(C#CC4=CCCCC4)ccc31)[C@H](c1ccc(O)cc1)N1[C@H](c3ccccc3)[C@H](c3ccccc3)OC(=O)[C@H]1[C@@H]2C(=O)NC[C@H](O)c1ccccc1
recorded result: 0.778

Exercise: Please give the documented z-score of "COC(=O)[C@@]1(Cc2ccccc2CN=[N+]=[N-])N=C(c2ccc(OCCCO)cc2)O[C@H]1c1ccccc1"
Solution: -4.68

----------
Below, each of the compounds is paired with its reported composite Z-score value.
# assay text: small-molecule microarray binders of probe aXIP, primary screen, biochemical, NeuroSMM set, 635/667 nm fluorescence (AID 1119);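 note: probe is the protein aXip251-270 applied at 1 µg/mL to compound-printed slides; binding of probe to printed compounds measured as 667 nm fluorescence plus signal to noise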
# experimental setup: higher = more signal, called active from +8 up or from −8 down
Output spec: single numeric token, no unit.

substance smiles: COCCOC(=O)N1C(=O)[C@@]2(c3cc(C#CC4=CCCCC4)ccc31)[C@H](c1ccc(O)cc1)N1[C@H](c3ccccc3)[C@H](c3ccccc3)OC(=O)[C@H]1[C@@H]2C(=O)NC[C@H](O)c1ccccc1
composite Z-score: 0.225

Exercise: Please give the documented composite Z-score of "C=CCN1C(=O)[C@@]2(O[C@@H](CCO)[C@H]([Si](C)(C)c3ccc(OC)cc3)[C@H]2C)c2cc(N3CCOC3=O)ccc21"
Solution: 0.0117

Exercise: Please give the documented composite Z-score of "COc1cc(CO)cc(I)c1O[C@H]1C=C(C(=O)NCCO)C[C@@H](NCC2CCCCC2)[C@@H]1O"
Solution: -0.442

----------
# System: Human papillomavirus type 1a protein E7 (residues 44-93)
# assay text: HPV1a E7 fragment binders on microarrays, primary screen, biochemical, small-molecule microarray, residues 44-93, 635 nm fluorescence (AID 1108);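 note: E7 fragment applied at 1 µg/mL in TBST for 1 h at 4 C; score combines spot fluorescence with its signal to noise ratio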
# experimental setup: small-molecule microarray binding, fluorescence 635 nm; higher = more signal
measured attribute: composite z-score
Output spec: single numeric token, no unit.

Exercise: Please give the documented composite z-score of O=C(NCC(O)CO)[C@@]1(CCS(=O)(=O)c2ccccc2)COC(c2ccc(OCCCO)cc2)=N1 (stereo partly specified)
Solution: 1.38

Exercise: Please give the documented composite z-score of CC(C)[C@H]1NC(=O)[C@@]23C(=O)N[C@@H](Cc4ccccc4)C2[C@H](C)[C@@]2(C)O[C@H]2C3/C=C/C/C=C\CNC(=O)[C@H](Cc2ccccc2)NC1=O (stereo partly specified)
Solution: 1.33

Exercise: Please give the documented composite z-score of CN1C(=O)C2C=CC(C(O)c3ccc(I)cc3)N(Nc3ccccc3)C2C1=O (stereo unspecified)
Solution: 1.33

----------
# assay text: binders of probe aFGF10 on microarray, primary screen, stem cell growth factor project, biochemical, small-molecule microarray, fluorescence 635/667 (AID 1071);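 note: score merges 667 nm spot intensity and signal to noise from triplicate slides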
# experimental setup: higher = more signal
Below, each of the molecules is paired with its reported composite z-score value.

Example molecules with recorded composite z-score:
molecule: CC(C)CNC(=O)[C@@H]1c2ccccc2C(=O)N(C2CCCCC2)[C@H]1c1ccc(CO)cc1
composite z-score: -0.305

molecule: COc1ccc([Si](C)(C)[C@H]2[C@H](CCO)O[C@@]3(C(=O)N(Cc4ccc(N5C(=O)c6ccccc6Oc6ccccc65)cc4)c4ccccc43)[C@@H]2C)cc1
composite z-score: 0.251

molecule: COCCOC(=O)N1C(=O)[C@@]2(c3cc(C#CCCO)ccc31)[C@H](C(=O)N1CCCCCCC1)[C@H]1C(=O)O[C@H](c3ccccc3)[C@H](c3ccccc3)N1[C@@H]2c1ccccc1OCCO
composite z-score: 0.473

molecule: COc1cc2c(cc1O)C(c1cccs1)N(Cc1sc3ccccc3c1Cl)CC2 (stereo not given)
composite z-score: 1.18

Kindly consider the entry below.
Exercise: Please give the documented composite z-score of "COCCCNC(=O)[C@@]1(c2ccc([N+](=O)[O-])cc2)CC(=O)N(CC23CC4CC(CC(C4)C2)C3)[C@@H]1c1ccc(CO)cc1I"
Solution: 0.246
